Origin of measurements: the DeepSol protein solubility set

- PROTOCOL DESCRIPTION: soluble on expression in E. coli; label from the status in PepcDB or PDB records

[
  {
    "RESIDUE STRING": "MKLNFSLYRYNPDVDNKPYMKDYILEVEEGSDMMVLDALILLKEQDPSIAFRRSCREGVCGSDGLNMNGKNGLACITPLSALKGDKIVIRPLPGLPVVRDLIVDMTQFYDNYAKVKPFLIADDALPPSRENLQSPEERAHLDGLYECIMCACCTTSCPSFWWNPDKFIGPAGLLAAYRWLIDSRDTATDERLSNLDDAFSVFRCHGIMNCVSVCPKGLNPTKAIGHIKSMLINRSV",
    "soluble on expression in E. coli": "not soluble"
  },
  {
    "RESIDUE STRING": "MNELINGNAIKMTSIEIAELVESRHSNVKVSIDRLVKRGVIKPPALQHTNIINDLGVITGKRDFYVFEGEKGKRDSIIVVAQLSPEFTARLVDRWRELEEAAVNIPKTLPEALRLAADLAEQKMQLENQLAIAAPKVEFADRVGEASGILIGNFAKVVGIGPNKLFAWMRDHKILIASGARRNVPMQEYMERGYFTVKETAVNTNHGIQISFTTKITGRGQQWLTRKLLDNGMLKVTGEAA",
    "soluble on expression in E. coli": "not soluble"
  },
  {
    "RESIDUE STRING": "MAHHHHHHMLLLLEREHPAVHAAVERILRGDSKIPVSVVRDFDGCEYHIRVEWDKEEKEMSQTSGVDSKDTGSGEVGTVNVGGTASVTVSLRSFTPFAELNTHGNFYEVLTTLFPSELQKFVVCDTHKGDGEDFTVAVHIPSNVPAKMLKEAMHSTAQLRAWSFVPAFARQFELFLTNPEVVQPLQLHYHDGEEMVVYNNRGSFIVAIALRVPSKDDAVLTRHFLQAMVEVRKHERSFCGSSAFIFEQGGPPDSVVAVTGPRGRVRDPNTFWCSFQLYKQQMEPPPRLVETVMHLVNFRTTLAYHIRAGRTYMHGIMRKRVESSLQWLNKAKARVAEETKITIT",
    "soluble on expression in E. coli": "not soluble"
  }
]

---

- PROTOCOL DESCRIPTION: soluble on expression in E. coli; label from the status in PepcDB or PDB records

[
  {
    "RESIDUE STRING": "MGSDKIHHHHHHMLDKSRLSRFKTQIDSQTEIAKFDALAKEWRDPHGKFKHVLSFNQTRLTAIEDQIASHFGRDLTQDIPFDGLSLLDIGCGVGLLCEPLASQGARVTGIDASEHNITLAHRHANSWSIPIEYRHCLAGDLPREQPQYDVILNTEVIEHVEDQAALVASCCDLLKPGGLMVMATLNRTLRSYLIGIIGAEYIMRYLPTGTHDWHHFVTPQELDEMLTPHGLSTKGVEGMAFNPFTRRWKITSNSAVNYLLYASKPIPGVLEA",
    "soluble on expression in E. coli": "not soluble"
  },
  {
    "RESIDUE STRING": "MILETISKQLQEQQESLNKDYRKKLESIKERSDRLESDLKTQFDAQLEKWEQNFKGYEQQLTDILNEREQLDLDQQRLNAQKQALENHMKQREE",
    "soluble on expression in E. coli": "not soluble"
  },
  {
    "RESIDUE STRING": "MGSDKIHHHHHHMKKILYLHAGAELYGADKVLLELIKGLDKNEFEAHVILPNDGVLVPALREVGAQVEVINYPILRRKYFNPKGIFDYFISYHHYSKQIAQYAIENKVDIIHNNTTAVLEGIYLKRKLKLPLLWHVHEIIVKPKFISDSINFLMGRFADKIVTVSQAVANHIKQSPHIKDDQISVIYNGVDNKVYYQSDARSVRERFDIDEEALVIGMVGRVNAWKGQGDFLEAVAPILEQNPKAIAFIAGSAFEGEEWRVVELEKKISQLKVSSQVRRIDYYANTTELYNMFDIFVLPSTNPDPLPTVVLEAMACGKPVVGYRHGGVCEMVKEGVNGFLVTPNSPLNLSKVILQLSENINLRKKIGNNSIERQKEHFSLKSYVKNFSKVYTSLKVY",
    "soluble on expression in E. coli": "not soluble"
  },
  {
    "RESIDUE STRING": "MQLQLICEDPSQQSHLDELAARWQLSHTDESDFALVLTAERLELRKVDEPKLGAIFVDLIGGAVGHRRKFGGGKGQAIAKAAGLNKGATPTVLDGTAGLGRDAFVLASLGCKVQMVERHPVVAALLDDGLARAKQDPEIGTWVSERMSLIHASSHDALDQLAQDREFVKPDVVYLDPMYPHPENKKKSALVKKEMRVFQSLVGADLDADGLLEPALALATKRVVVKRPDYANWLNEQKPSMAIETKKNRFDVYVKASMALEHHHHHH",
    "soluble on expression in E. coli": "soluble"
  },
  {
    "RESIDUE STRING": "MVQDWHQQEKARMIQTLTGTKAVYGSEVESKIIEFAIVGADEVVAEKLGVSIGDFVYKIIRLRIIHSIPTIMEHTWMPISVIPGVEASVLEESIYSHIQNKLGLEVGTSVVRVKGIRPDDREKQFMNLTNQDFLMRVEQVAYLTDGRTFEYSYADHLPETFEFETVITAKKL",
    "soluble on expression in E. coli": "not soluble"
  },
  {
    "RESIDUE STRING": "AQIDLNITCRFAGVFHVEKNGRYSISRTEAADLCKAFNSTLPTMAQMEKALSIGFETCRYGFIEGHVVIPRIHPNSICAANNTGVYILTSNTSQYDTYCFNASAPPEEDCTSVTDLPNAFDGPITITIVNRDGTRYVQKGEYRTNPEDIYPSNPTDDDV",
    "soluble on expression in E. coli": "soluble"
  }
]
